Tested on: Human alphaherpesvirus 1
ASSAY REMARKS: Tested for anti-viral activity against Herpes simplex virus type-1 using ELISA.
Type: functional, organism-based
List of IC50 values.

MOLECULE	UNIT INFO	VALUE RELATION SIGN	IC50
Nc1nc2c(ncn2COCCO)c(=O)[nH]1	µM	=	1.7
N#CCSc1nc2cc(Cl)c(Cl)cc2n1C1O[C@H](CO)[C@@H](O)[C@H]1O (stereo partly specified)	µM	>	100
OC[C@H]1OC(n2c(SCc3ccc(Cl)cc3)nc3cc(Cl)c(Cl)cc32)[C@H](O)[C@@H]1O (stereo partly specified)	µM	>	30
O=[N+]([O-])c1ccc(CSc2nc3cc(Cl)c(Cl)cc3n2C2O[C@H](CO)[C@@H](O)[C@H]2O)cc1 (stereo partly specified)	µM	=	40
OC[C@H]1OC(n2c(SCc3ccc(Br)cc3)nc3cc(Cl)c(Cl)cc32)[C@H](O)[C@@H]1O (stereo partly specified)	µM	=	30
OC[C@H]1OC(n2c(SCc3ccc(Cl)c(Cl)c3)nc3cc(Cl)c(Cl)cc32)[C@H](O)[C@@H]1O (stereo partly specified)	µM	>	30

====

Tested on: Human alphaherpesvirus 1
ASSAY REMARKS: Tested for anti-viral activity against Herpes simplex virus type-1 using ELISA.
Assay type: functional, organism-based
pIC50: −log10 of the molar value.
MEASURED PARAMETER: pIC50

MOLECULE	VALUE RELATION SIGN	VALUE OBSERVED
C#CCSc1nc2cc(Cl)c(Cl)cc2n1C1O[C@H](CO)[C@@H](O)[C@H]1O (some centres undefined)	=	4.00
OC[C@H]1O[C@@H](n2cnc3cc(Cl)c(Cl)cc32)[C@H](O)[C@@H]1O [DICHLORORIBOBENZIMIDAZOLE]	=	4.52
Cc1ccc(CSc2nc3cc(Cl)c(Cl)cc3n2C2O[C@H](CO)[C@@H](O)[C@H]2O)cc1 (some centres undefined)	<	4.52
O=[N+]([O-])c1cccc(CSc2nc3cc(Cl)c(Cl)cc3n2C2O[C@H](CO)[C@@H](O)[C@H]2O)c1 (some centres undefined)	=	4.30

====

Test system: Human alphaherpesvirus 1
ASSAY REMARKS: Tested for anti-viral activity against Herpes simplex virus type-1 using ELISA.
Format: functional, organism-based
pIC50: −log10 of the molar value.
List of pIC50 values.
MEASURED PARAMETER: pIC50

COMPOUND	VALUE RELATION SIGN	VALUE OBSERVED
C=CCSc1nc2cc(Cl)c(Cl)cc2n1C1O[C@H](CO)[C@@H](O)[C@H]1O (stereo partly drawn)	<	4.00
OC[C@H]1OC(n2c(SCc3cccc(Cl)c3)nc3cc(Cl)c(Cl)cc32)[C@H](O)[C@@H]1O (stereo partly drawn)	=	4.15
Cc1cccc(CSc2nc3cc(Cl)c(Cl)cc3n2C2O[C@H](CO)[C@@H](O)[C@H]2O)c1 (stereo partly drawn)	=	4.42
OC[C@H]1OC(n2c(SCc3cccc(C(F)(F)F)c3)nc3cc(Cl)c(Cl)cc32)[C@H](O)[C@@H]1O (stereo partly drawn)	=	4.40
OC[C@H]1OC(n2c(SCc3ccc(F)cc3)nc3cc(Cl)c(Cl)cc32)[C@H](O)[C@@H]1O (stereo partly drawn)	<	4.52
CC(C)(C)c1ccc(CSc2nc3cc(Cl)c(Cl)cc3n2C2O[C@H](CO)[C@@H](O)[C@H]2O)cc1 (stereo partly drawn)	=	4.70
COc1ccc(CSc2nc3cc(Cl)c(Cl)cc3n2C2O[C@H](CO)[C@@H](O)[C@H]2O)cc1 (stereo partly drawn)	<	4.00
OC[C@H]1OC(n2c(SCc3ccccc3Cl)nc3cc(Cl)c(Cl)cc32)[C@H](O)[C@@H]1O (stereo partly drawn)	=	4.22
